# measured_on: T1, human GIP receptor (human, UniProt P48546 22-466)
# T1 sequence (looked up): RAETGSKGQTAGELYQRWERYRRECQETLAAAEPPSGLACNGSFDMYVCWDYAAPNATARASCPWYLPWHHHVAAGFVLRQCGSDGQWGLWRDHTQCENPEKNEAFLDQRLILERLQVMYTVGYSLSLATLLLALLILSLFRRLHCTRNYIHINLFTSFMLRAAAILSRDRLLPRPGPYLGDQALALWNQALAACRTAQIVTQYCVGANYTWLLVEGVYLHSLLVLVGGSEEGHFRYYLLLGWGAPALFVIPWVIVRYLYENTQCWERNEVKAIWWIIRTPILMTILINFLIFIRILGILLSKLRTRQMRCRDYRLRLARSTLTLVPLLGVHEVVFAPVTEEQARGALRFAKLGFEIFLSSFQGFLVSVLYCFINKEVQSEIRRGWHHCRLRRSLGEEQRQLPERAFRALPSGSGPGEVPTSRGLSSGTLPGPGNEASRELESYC
# experiment: cell-based or functional assay
Bridge positions count the residues as written; N and C are the ends. Square brackets hold non-standard residues; d marks the D form. Ends that are not written are not given here. * marks the point of attachment. Acetyl(2-(4-imidazolyl)) = O=C(Cc1c[nH]cn1)*; Aib = CC(C)(N)C(=O)O
Each entry below carries its reported In vitro activity compared with native peptide (%) vs GIP (cAMP EC50).
Only the number, expressed in %, is required.

Examples from the recorded data:
>>> df
                                     binder  observed_measurement
0  {Acetyl(2-(4-imidazolyl))}-[Aib]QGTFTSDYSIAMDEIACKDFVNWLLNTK (bridge 15-19) [triple agonist of SEQ ID NO: 61]                   2.8
1  Y[Aib]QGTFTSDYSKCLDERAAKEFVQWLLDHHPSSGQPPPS (bridge 16-20) [triple agonist of SEQ ID NO: 69]                  62.8
2  Y[Aib]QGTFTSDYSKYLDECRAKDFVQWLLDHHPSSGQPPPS (bridge 16-20) [triple agonist of SEQ ID NO: 66]                  17.2
3  H[Aib]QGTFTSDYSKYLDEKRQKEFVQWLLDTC (bridge 16-20) [triple agonist of SEQ ID NO: 52]                   0.3
4  [Acetyl(2-(4-imidazolyl))][Aib]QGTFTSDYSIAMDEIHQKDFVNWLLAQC (bridge 16-20) [triple agonist of SEQ ID NO: 85]                   0.3
5  {Acetyl(2-(4-imidazolyl))}-[Aib]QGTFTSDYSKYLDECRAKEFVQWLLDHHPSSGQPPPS (bridge 15-19) [triple agonist of SEQ ID NO: 73]                     3
6  Y[Aib]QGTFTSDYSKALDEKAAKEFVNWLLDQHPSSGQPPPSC (bridge 16-20) [triple agonist of SEQ ID NO: 101]                  40.1
7  Y[Aib]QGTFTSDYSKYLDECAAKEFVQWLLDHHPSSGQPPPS (bridge 16-20) [triple agonist of SEQ ID NO: 64]                  92.9

Lookup: Look up In vitro activity compared with native peptide (%) vs GIP (cAMP EC50) for this binder: H[Aib]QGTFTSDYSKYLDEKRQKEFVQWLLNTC (bridge 16-20) [triple agonist of SEQ ID NO: 51]
Found: 0.1

Lookup: Please report the recorded In vitro activity compared with native peptide (%) vs GIP (cAMP EC50) for Y[Aib]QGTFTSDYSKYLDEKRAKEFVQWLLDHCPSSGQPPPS (bridge 16-20) [triple agonist of SEQ ID NO: 96] .
Found: 5.2

Lookup: What does the record list as In vitro activity compared with native peptide (%) vs GIP (cAMP EC50) for Y[Aib]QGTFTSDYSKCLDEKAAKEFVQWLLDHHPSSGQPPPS (bridge 16-20) [triple agonist of SEQ ID NO: 68] ?
Found: 107

Lookup: In vitro activity compared with native peptide (%) vs GIP (cAMP EC50) lookup needed for H[Aib]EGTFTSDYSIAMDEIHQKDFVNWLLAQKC (bridge 16-20) [triple agonist of SEQ ID NO: 79] , thanks.
Found: 1.4

Lookup: I would be grateful if you could share the reported In vitro activity compared with native peptide (%) vs GIP (cAMP EC50) for [Acetyl(2-(4-imidazolyl))][Aib]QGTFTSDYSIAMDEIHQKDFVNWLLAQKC (bridge 16-20) [triple agonist of SEQ ID NO: 92] .
Found: 0.4
